- targetEntity: Tyrosine-protein phosphatase non-receptor type 1 (Homo sapiens, UniProt P18031)
- Sequence (P18031 whole entry): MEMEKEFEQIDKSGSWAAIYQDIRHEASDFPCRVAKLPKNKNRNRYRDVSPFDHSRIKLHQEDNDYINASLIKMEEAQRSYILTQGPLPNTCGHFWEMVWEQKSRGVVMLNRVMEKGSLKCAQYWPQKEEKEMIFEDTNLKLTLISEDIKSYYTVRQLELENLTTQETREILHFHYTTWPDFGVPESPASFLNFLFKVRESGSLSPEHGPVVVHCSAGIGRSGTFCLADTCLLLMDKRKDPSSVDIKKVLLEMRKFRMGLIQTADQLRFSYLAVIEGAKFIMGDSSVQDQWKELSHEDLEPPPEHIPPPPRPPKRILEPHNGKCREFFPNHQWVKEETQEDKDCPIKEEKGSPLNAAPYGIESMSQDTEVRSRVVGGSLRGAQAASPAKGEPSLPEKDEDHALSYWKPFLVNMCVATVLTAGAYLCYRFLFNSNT
- measurementNotes: Inhibition of PTP1B (unknown origin)
- details: read-out: IC50
# pIC50 listing for each entry below
# log scale: pIC50 equals minus log10 of the concentration in mol/L

CC1(C)CC[C@]2(C(=O)OCCCCCCC(=O)O)CC[C@]3(C)C(=CC[C@@H]4[C@@]5(C)CC[C@H](O)C(C)(C)[C@@H]5CC[C@]43C)[C@@H]2C1 :: 6.06
CC1(C)CC[C@]2(CC(=O)NC(Cc3cnc[nH]3)C(=O)O)CC[C@]3(C)C(=CC[C@@H]4[C@@]5(C)CC[C@H](O)C(C)(C)[C@@H]5CC[C@]43C)[C@@H]2C1 (stereo partly specified) :: 5.34
Cc1ccccc1CC(NC(=O)C[C@]12CCC(C)(C)C[C@H]1C1=CC[C@@H]3[C@@]4(C)CC[C@H](O)C(C)(C)[C@@H]4CC[C@@]3(C)[C@]1(C)CC2)C(=O)O (stereo partly specified) :: 6.26
CC1(C)CC[C@]2(CC(=O)NC(CC3=CCc4ccccc43)C(=O)O)CC[C@]3(C)C(=CC[C@@H]4[C@@]5(C)CC[C@H](O)C(C)(C)[C@@H]5CC[C@]43C)[C@@H]2C1 (stereo partly specified) :: 6.23
COc1cc(CC(NC(=O)C[C@]23CCC(C)(C)C[C@H]2C2=CC[C@@H]4[C@@]5(C)CC[C@H](O)C(C)(C)[C@@H]5CC[C@@]4(C)[C@]2(C)CC3)C(=O)O)cc(OC)c1 (stereo partly specified) :: 6.20

Continue with the next molecule.
Any idea what its pIC50 is? The molecule is CC1(C)CC[C@]2(CC(=O)NC(Cc3ccc([N+](=O)[O-])cc3)C(=O)O)CC[C@]3(C)C(=CC[C@@H]4[C@@]5(C)CC[C@H](O)C(C)(C)[C@@H]5CC[C@]43C)[C@@H]2C1 (stereo partly specified)
6.35
